# measured-on: Glutamate NMDA receptor; Grin1/Grin2a (Rattus norvegicus, UniProt P35439+Q00959)
# Sequence (Q00959 whole entry, other chains not shown): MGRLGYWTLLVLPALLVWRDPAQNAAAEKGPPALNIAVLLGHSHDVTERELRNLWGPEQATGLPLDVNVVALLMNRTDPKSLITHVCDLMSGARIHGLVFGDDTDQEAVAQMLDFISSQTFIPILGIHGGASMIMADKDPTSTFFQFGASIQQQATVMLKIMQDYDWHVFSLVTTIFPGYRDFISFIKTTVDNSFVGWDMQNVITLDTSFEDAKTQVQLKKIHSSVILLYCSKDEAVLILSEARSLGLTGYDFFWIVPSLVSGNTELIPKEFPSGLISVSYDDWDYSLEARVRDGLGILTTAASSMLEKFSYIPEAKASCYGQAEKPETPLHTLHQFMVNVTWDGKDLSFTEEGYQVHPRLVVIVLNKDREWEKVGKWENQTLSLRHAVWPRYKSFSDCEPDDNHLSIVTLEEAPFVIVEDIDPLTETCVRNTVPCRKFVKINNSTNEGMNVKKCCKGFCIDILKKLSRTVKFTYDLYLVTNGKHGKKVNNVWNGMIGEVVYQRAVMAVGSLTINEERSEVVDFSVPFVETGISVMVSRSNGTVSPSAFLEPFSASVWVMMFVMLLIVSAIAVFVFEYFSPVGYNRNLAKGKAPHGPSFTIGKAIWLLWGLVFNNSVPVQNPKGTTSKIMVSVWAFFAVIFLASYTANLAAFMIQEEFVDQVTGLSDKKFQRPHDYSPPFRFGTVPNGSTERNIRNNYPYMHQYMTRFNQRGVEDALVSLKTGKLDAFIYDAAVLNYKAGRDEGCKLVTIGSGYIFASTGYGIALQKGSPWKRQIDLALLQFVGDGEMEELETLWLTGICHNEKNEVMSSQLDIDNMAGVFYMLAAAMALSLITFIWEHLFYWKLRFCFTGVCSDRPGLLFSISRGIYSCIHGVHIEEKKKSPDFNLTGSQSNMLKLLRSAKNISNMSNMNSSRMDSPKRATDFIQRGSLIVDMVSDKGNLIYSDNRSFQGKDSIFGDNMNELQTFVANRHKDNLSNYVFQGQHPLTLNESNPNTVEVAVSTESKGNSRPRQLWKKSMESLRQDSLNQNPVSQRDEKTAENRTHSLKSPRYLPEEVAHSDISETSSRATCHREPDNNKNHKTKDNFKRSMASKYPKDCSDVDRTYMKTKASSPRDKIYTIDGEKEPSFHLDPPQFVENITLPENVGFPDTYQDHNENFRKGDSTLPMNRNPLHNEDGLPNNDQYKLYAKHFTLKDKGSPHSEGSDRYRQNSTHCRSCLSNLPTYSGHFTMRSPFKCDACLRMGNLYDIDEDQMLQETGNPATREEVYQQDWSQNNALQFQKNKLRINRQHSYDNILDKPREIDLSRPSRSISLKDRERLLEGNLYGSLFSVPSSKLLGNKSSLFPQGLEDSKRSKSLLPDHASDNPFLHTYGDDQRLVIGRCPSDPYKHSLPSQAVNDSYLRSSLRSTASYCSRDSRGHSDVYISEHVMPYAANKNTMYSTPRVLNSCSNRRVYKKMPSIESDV
# experimental-protocol: Negative allosteric modulation of recombinant rat GluN1/GluN2A expressed in Xenopus laevis oocytes assessed as inhibition of glutamate/glycine-induced current response at -40 mV holding potential by two-electrode voltage clamp method
pIC50: −log10 of the molar value.

| smiles-data | measured-on | pIC50 |
| --- | --- | --- |
| O=C(NNC(=O)c1ccc(CNS(=O)(=O)c2ccc(F)c(Cl)c2)cc1)c1ccccc1 | Glutamate NMDA receptor; Grin1/Grin2a (Rattus norvegicus, UniProt P35439+Q00959) | 6.77 |

Cited source for all entries: ChEMBL document CHEMBL4339195
